Entry source: patent US12590130B2

Test: Solubility of therapeutic peptides
Type: physicochemical
Details: water or culture medium
MEASURE: solubility in water or culture medium

>>> result("H-RRRRRRRRWDQQQQQ-NH2 [Peptide 8R5Q, NH2-(R)8-W-D-(Q)5-CONH2]")
"highly soluble"
>>> result("H-RRRRRRRRWDQQQQQQQQQQ-NH2 [Peptide 8R10Q, NH2-(R)8-W-D-(Q)10-CONH2]")
"highly soluble"

* * *

Recorded average size of the aggregates, one value per entry.
System: 109QmHtt aggregates
Test: TIRF microscopy of mHtt aggregates in Neuro2a cells
Assay type: cell-based
Settings: Neuro2a cells expressing 109QmHtt
MEASURE: average size of the aggregates (μm^2)

>>> numeric_result("H-RQQRRQQDQRQWQRQRQQRR-NH2 [s8R10Q, reference compound]")
1.7
>>> numeric_result("H-RRRRRRRRWDQQQQQQQQQQQQQQQ-NH2 [Peptide 8R15Q, NH2-(R)8-W-D-(Q)15-CONH2]")
0.2
>>> numeric_result("H-RRRRRRRRWD-NH2 [Peptide 8R, NH2-(R)8-W-D-CONH2, reference compound]")
3.3
>>> numeric_result("H-RRRRRRRRWDQQQQQQQQQQ-NH2 [Peptide 8R10Q, NH2-(R)8-W-D-(Q)10-CONH2]")
0.3
